# Tested System: AKT2 (Homo sapiens)
# Construct: expressed in transfected cells; host or cells: HEK293
# Sequence (P31751 whole entry): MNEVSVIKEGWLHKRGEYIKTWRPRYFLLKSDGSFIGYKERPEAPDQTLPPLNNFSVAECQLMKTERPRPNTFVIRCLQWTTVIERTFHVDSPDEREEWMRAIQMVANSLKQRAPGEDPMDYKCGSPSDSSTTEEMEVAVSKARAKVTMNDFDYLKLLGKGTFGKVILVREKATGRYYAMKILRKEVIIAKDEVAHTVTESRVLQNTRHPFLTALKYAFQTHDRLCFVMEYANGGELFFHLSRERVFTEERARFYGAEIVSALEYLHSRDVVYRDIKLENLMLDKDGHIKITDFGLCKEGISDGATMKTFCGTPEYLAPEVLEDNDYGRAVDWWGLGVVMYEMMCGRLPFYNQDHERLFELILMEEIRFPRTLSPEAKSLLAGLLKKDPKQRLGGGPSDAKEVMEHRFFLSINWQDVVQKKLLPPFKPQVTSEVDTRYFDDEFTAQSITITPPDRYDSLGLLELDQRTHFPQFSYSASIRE
# Method: Live cell AKT2 target engagement by NanoBRET competitive probe displacement in HEK293 cells
# Type: binding
# Stated Conditions: NanoBRET competitive probe displacement, live HEK293 cells, 2 h at 37° C.; read-out: AKT2 IC50
Property Name: IC50 (nM)
Record the value in nM, omitting the unit from your answer.

COc1ccn(-c2ccc3nc(-c4cccnc4N)n(-c4ccc5c(c4)CC(F)[C@@H]5NC4CN(C(=O)C5CC5)C4)c3n2)n1 (stereo partly drawn) [Compound 493]    973
C#Cc1cc(-n2nccn2)nc2c1nc(-c1cccnc1N)n2-c1ccc2c(c1)CC[C@@H]2NC(=O)c1ccc(C)nc1 [Compound 587]    1010

Fill in: IC50 of Cc1cnsc1C(=O)N[C@H]1CCc2cc(-n3c(-c4cccnc4N)nc4ccc(-n5cccn5)nc43)ccc21 [Compound 451] is ___
198

* * *

# Tested System: AKT1 E17K (Homo sapiens, UniProt P31749, E17K)
# Construct: expressed in transfected cells; host or cells: HEK293
# Sequence (P31749 whole entry E17K): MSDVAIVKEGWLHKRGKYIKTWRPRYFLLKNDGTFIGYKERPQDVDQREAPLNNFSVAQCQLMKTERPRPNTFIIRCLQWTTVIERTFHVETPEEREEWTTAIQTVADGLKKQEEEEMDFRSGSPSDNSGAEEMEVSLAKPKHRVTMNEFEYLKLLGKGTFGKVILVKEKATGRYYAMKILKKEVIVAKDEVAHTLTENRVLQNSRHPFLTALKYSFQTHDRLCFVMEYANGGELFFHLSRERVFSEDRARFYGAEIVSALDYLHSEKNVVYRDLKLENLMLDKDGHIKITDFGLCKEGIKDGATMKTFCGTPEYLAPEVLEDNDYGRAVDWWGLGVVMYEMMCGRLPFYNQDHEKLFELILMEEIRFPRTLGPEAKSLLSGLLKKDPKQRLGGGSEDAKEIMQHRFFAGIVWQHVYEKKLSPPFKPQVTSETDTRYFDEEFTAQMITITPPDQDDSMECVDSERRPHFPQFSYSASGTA
# Method: Live cell AKT1 E17K target engagement by NanoBRET competitive probe displacement in HEK293 cells
# Type: binding
# Stated Conditions: NanoBRET live cell target engagement, HEK293 cells, 2 h at 37° C.
pIC50: −log10 of the molar value.
Property Name: pIC50

COC1(C(F)F)CC(C(=O)N[C@H]2CCc3cc(-n4c(-c5cccnc5N)nc5ccc(-n6cccn6)nc54)ccc32)C1 (single isomer, unassigned) [Compound 10]    < 6.00
Nc1ncccc1-c1nc2ccc(-n3cccn3)nc2n1-c1ccc2c(c1)CC[C@@H]2NC(=O)C1COC1 [Compound 15]    < 6.00

Fill in: pIC50 of Nc1ncccc1-c1nc2ccc(-n3nccn3)nc2n1-c1ccc2c(c1)CC[C@@H]2NC(=O)c1cnc(C(F)F)cn1 [Compound 288] is ___
< 6.00

* * *

# Tested System: AKT1 E17K (Homo sapiens, UniProt P31749, E17K)
# Construct: expressed in transfected cells; host or cells: HEK293
# Method: Live cell AKT1 E17K target engagement by NanoBRET competitive probe displacement in HEK293 cells
# Type: binding
# Stated Conditions: NanoBRET live cell target engagement, HEK293 cells, 2 h at 37° C.
pIC50: −log10 of the molar value.
Listed next: entries and their corresponding pIC50.

Field: example entries. Status: answers known.
Nc1ncccc1-c1nc2ccc(-n3cccn3)nc2n1-c1ccc2c(c1)CC[C@@H]2NC(=O)Cc1cccnc1    < 6.00
CCC(=O)N1CCC(N[C@H]2CCc3cc(-n4c(-c5cccnc5N)nc5ccc(-n6cccn6)nc54)ccc32)CC1    < 6.00

--- query ---
Fill in: pIC50 of CN1C(=O)CCC1CC(=O)N[C@H]1CCc2cc(-n3c(-c4cccnc4N)nc4ccc(-n5cccn5)nc43)ccc21 (mixture of isomers) is ___
< 6.00

* * *

# Tested System: AKT1 WT (Homo sapiens)
# Construct: expressed in transfected cells; host or cells: HEK293
# Sequence (P31749 whole entry): as the sequence (P31749 whole entry E17K) above, with K17E counted along it
# Method: Live cell AKT1 WT target engagement by NanoBRET competitive probe displacement in HEK293 cells
# Type: binding
# Stated Conditions: NanoBRET live cell target engagement, HEK293 cells, 2 h at 37° C.; read-out: AKT1 WT IC50
# Experimental: Determining live cell AKT1 E17K, AKT1 WT, and AKT2 target engagement by NanoBRET competitive probe displacement. […] Briefly, HEK293 cells were transfected with plasmids encoding kinase-NanoLuciferase fusion proteins overnight. […] After incubation for 2 h at 37° C., luciferase substrate and extracellular luciferase inhibitor were added to all wells, and luminescent intensity at 460 nm and 600 nm were measured on a multimode plate-reader. […]
Listed next: entries and their corresponding IC50.
Lab note: write values as number then unit, every time.

Field: example entries. Status: answers known.
COCc1ncccc1C(=O)N[C@H]1CCc2cc(-n3c(-c4cccnc4N)nc4ccc(-n5cccn5)nc43)ccc21    0.0503 µM
Nc1ncccc1-c1nc2ccc(-n3ccc(F)n3)nc2n1-c1ccc2c(c1)CC[C@@H]2NC1CCN(c2ccccn2)CC1    0.0744 µM
Nc1ncccc1-c1nc2ccc(-n3cccn3)nc2n1-c1ccc2c(c1)CC[C@@H]2n1cnnc1CC1CC1    0.0132 µM
Nc1ncccc1-c1nc2ccc(-n3cccn3)nc2n1-c1ccc2c(c1)CC[C@@H]2NC(=O)c1cccnc1C(F)F    0.0195 µM
Cc1ncc(C(=O)N[C@H]2CCc3cc(-n4c(-c5cccnc5N)nc5ccc(-n6nccn6)nc54)ccc32)c(C)n1    0.0428 µM

Fill in: IC50 of Cc1cnc(C(=O)N[C@H]2CCc3cc(-n4c(-c5cccnc5N)nc5ccc(-n6cccn6)nc54)ccc32)cn1 is ___
0.0653 µM

Origin of the recorded values: patent US12624034B2
